Consider the following binders; for each one, report its Ratio/Fc-H.
system_under_test: T1, FcRn-p3 fusion protein (human, UniProt P55899 24-297; P61769 21-119)
T1 construct: baculovirus expressed; coated on ELISA wells; not shown: amino terminal part of bacteriophage p3 protein and CVDE protein
measurement_protocol: phage ELISA pH6
Numbers only, in fold.

binder	Ratio/Fc-H (fold)
C4A_29 (other, EU numbering) CPPCPAPELLGGPSVFLFPPKPKDTLMISRTPEVTCVVVDVSHEDPEVKFNWYVDGVEVHNAKTKPREEQYNSTYRVVSVLPVLHQDWLDGKEYKCKVSNKALPAPIEKTISKAKGQPREPQVYTLPPSRDELTKSRVSLTCLVKGFYPSDIAVEWESNGQPENNYKTTPPVLDSDGSFFLYSKLTVDKSRWQQGNVFSCSVMHEALHYHYTQKSLSLSPGK	3.8

// below: Ratio/Fc-H requested for another binder
Any idea what Ratio/Fc-H was measured for C4A_24 (other, EU numbering) CPPCPAPELLGGPSVFLFPPKPKDTLMISRTPEVTCVVVDVSHEDPEVKFNWYVDGVEVHNAKTKPREEQYNSTYRVVSVLTVPHQDWLDGKEYKCKVSNKALPVPIEKTISKAKGQPREPQVYTLPPSRDELTKNQVSLTCLVKGFYPSDIAVEWESNGQPENNYKTTPPVLDSDGSFFLYSKLTVDKSRWQQGNVFSCSVMHEALHYHYTQKSLSLSPGK ?
2.3
